Tested on: MS2 coat protein
Experiment: apparent KD of MS2 coat protein; designed switch direction (-1 OFF switch, 1 ON switch): -1; higher = weaker reporter binding
Conditions: input ligand: FMN 200 uM
metric: apparent KD of MS2 coat protein (nM)

1. UUCCGACAUGAGGAUCACCCAUGUGAGGAUAUGUUCGAAAGCUAAGACUGCGACAGGAAUAGAAGGCGCGGGUA [Eternabot (Original) Solution 17] (Eterna round: R97, puzzle: Exclusion 1) : 20.4
2. GUCAGCUCGUGAGGAUAUGUAUAUACAUGAGGAUCACCCAUGUUAGAUCUGCUUCGGCUGUAUAUACAGAAGGCACGAGCUGAC [ENG2/16-A1] (Eterna round: R96, puzzle: Exclusion NG 2) : 504
3. GUAAUUAAUGUAGGAUAUGCAAGGCGAAACAUGAGAGAAGGCCAUGUGGAUCACCCAUGUAAUGCGGUCUGCGUACAGAUCGCU [salish99_ExNG1_r4_003] (Eterna round: R96, puzzle: Exclusion NG 1) : 38
4. AACAUGAGGAUCACCCAUGUGGGUCCUCUGUGGCAGCGAGACGAGGAUAUCAAUGGAGGGCCAGGUGAGAAGGUGUACGAUCAU [Eternabot solution 28] (Eterna round: R96, puzzle: Exclusion NG 3) : 183
5. CAGGUCUGAAAGGAUAUCCACGCCUGCGGGCCAGGAGAAGGUUCGACUUGAGGAUCACCCAAGUGCCGAGUCCA [Ervezaar] (Eterna round: R97, puzzle: Exclusion 6) : 33.2
6. UAAAUUGGGUAGGAUAUGUUUGUUUAAAGAGCCACAGAAGGACCCACAUGAGGAUCACCCAUGUAUCACCUAUG [Eternabot (L2) Solution 60] (Eterna round: R97, puzzle: Exclusion 6) : 33.6
7. GGAAGGCGAGGAUAUGCAAUAAAGCAGGCGAAGGCCUGCAAACAUGAGGAUCACCCAUGUAGAAGGCGCGAGAA [AK-MS2ROC-r4-exclusion2-6.6] (Eterna round: R97, puzzle: Exclusion 2) : 17.2
8. UUCCUCACUUCUUUGUCUCACAUGAGGAUCACCCAUGUAAUAUAGGAUAUGCAUAGUAUUUCUAUGCAGAAGGAUAUUAGUUUU [JR_ExcNG3_Sub087] (Eterna round: R96, puzzle: Exclusion NG 3) : 131
9. GGGUAGUGAGGAUAUACAUGAGGAUCACCCAUGUUUGCGACACUGGAGGCGUCUCUAUGUAGAAGGCGCGGCCG [EX3 B.16] (Eterna round: R97, puzzle: Exclusion 3) : 30.4

----------
Test system: K4 kissing-loop RNA reporter;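 note: bound reporter read as fluorescence of individual clusters on recovered sequencing chips by microscopy, with normalized cluster intensities fitted with a binding model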
Test: apparent KD of K4 kissing-loop reporter; higher = weaker reporter binding
Conditions: Eterna round: R107; input ligand: FMN 200 uM
Outcome: true (1) for apparent KD of K4 kissing-loop reporter of at least 100 nM; false (0) for anything lower.

1. GGCACUUUUGGUAGACACCAUCUACCUCUAUAGGAUAUGCCGAAAGGCAGAAGGAUAGACCUACAGAGUGAUGUUCUGCGUGCCU : true (1)
2. GGAUAGGACAGAGGAUAUCCAGUGAUGUUGGAGAAUUCUCCUUCAACAUGUCACAAAAGUGGCAUGGGAGAAGGCUGUCCUAUCG [Mod of Eli's FmnBX 29 v2] : true (1)
3. UUUAUGAUGUCGGCCGCCACUGGAUUAAUAUGUGUGUAAUCUAGUUCUGAGUGAUGUUUAGAGUCCAGGACCGGGACAUUAGUUA [#12 K4 Tryptophan B Exclusion] : true (1)
4. CGGAACGCAUCGGCCGCCACUUUUAUCUGCAGUGAUGUUGCAGUAUCCGAGCAAGGCUGUUGUGAAAGGACCGGGAUGGUCCGUU [Tibeberi] : false (0)
5. GGUAGCGCCAGAGAUACCAGUCAUAUCGCUCUGGAGUGAUGUUCCGGAACGUGCGGAGAAGACCCUUGGCAGCUCAUGACGGUAU [Exclusion Theophylline B GF 3] : true (1)
6. AUUAAUUUCAGAGGAUAUGCUUUAUUAUUAUUUUUAAAUAAUAAAUGCAGUGAUGUUGCUUAUUAUGCAGAAGGCUGAUUUAUAA [JR_SSFMNB_Sub014] : true (1)

----------
Tested on: MS2 coat protein
Experiment: apparent KD of MS2 coat protein; designed switch direction (-1 OFF switch, 1 ON switch): -1; higher = weaker reporter binding
Conditions: input ligand: none
metric: apparent KD of MS2 coat protein (nM)

1) ACACCUCACGUCAGGAUAUCUAUCUCGAGUGAGGAAGAGAAGGGACAUGAGGAUCACCCAUGUAUAGAAAGAAU [Usissodi] (Eterna round: R97, puzzle: Brourd's mod of Exclusion 4) : 27.2
2) AUAAUGCAAGCAUGGUCCCACAUGAGGAUCACCCAUGUGUUCGUCUUAUAGGCUGCUGUGGCUUUUGCCUCGUUGGC [LRO Sensor-off var1-10 loose mod of D91 from Mat747] (Eterna round: R97, puzzle: Sensor, turn-off variant 1) : 78.5
3) UACCCUAAGGUGAGGAUAUCUAGGCCUAGAGGUCAAGAGAAGGCACAUGAGGAUCACCCAUGUAGUUGAUACGA [BmEX4 B.25] (Eterna round: R97, puzzle: Brourd's mod of Exclusion 4) : 21.9
4) AGAUGCUCAAGUCGACAUGAGGAUCACCCAUGUACAGUAAACGAGGAUAUCCGAGAUAAAUAAUAGGAGAAGGCGUGAUCAUGA [Mat - Exclusion NG 3 - Mod of JL - D55] (Eterna round: R96, puzzle: Exclusion NG 3) : 86.3

----------
Tested on: MS2 coat protein
Test: apparent KD of MS2 coat protein, switch ON state; designed switch direction (-1 OFF switch, 1 ON switch): -1; higher = weaker reporter binding
Settings: FMN input: 0 or 200 uM; Eterna round: R93 (includes R88 designs)
Listed sequences paired with reported apparent KD of MS2 coat protein
metric: apparent KD of MS2 coat protein (nM)

1. AAGGUAUAAGGAUAUACAUAGAUACAGACACAUGUUCAAGUACAUGAGGAUCACCCAUGUAGAAGGUAUAUAUA [AJ 13] : 29.2
2. UUUACGUGAGGAUAUGCGAAUAGUACGUAAGUCUUACAGACGCAGAAGGCACAUGAGGAUCACCCAUGUGAACC [JR_Exc004_Sub310] : 22.7
3. AAAAAGUGAGGAUAUUCGGAUAGGAAAACGAAAACCUAUCCGAAGAAGGCACAUGAGGAUCACCCAUGUGAAAA [67% Ecls-II - Early G + late G segment 1] : 27.5
4. AAAAAGUGAGGAUAUACAUGAGGAUCACCCAUGUGUAUAAAAAAAUACACAAAAGAAAGUAGAAGGCACUAAAA [Ex 3 Hot] : 21.1
5. AAUAAGUCAGGAUAUACUAAAGAAAUGAAAAGAAAUAAAGAACAUGAGGAUCACCCAUGUAGAAGGGACAAUAA [Anati Djedkare] : 100
6. AAGUUGUCAGGAUAUGCUUGUCGUCACAAAAGUGAUGACGAGCAGAAGGGACAUGAGGAUCACCCAUGUAAAGA [JL eternac mod 2] : 65.8
7. CUCAAGUUAGGAUAUGGAAGAAAAGAAGAGAAAGAAAAGAACCAGAAGGAACAUGAGGAUCACCCAUGUAAGAA [EteRNA is fun!] : 58.1

----------
Tested on: MS2 coat protein
Assay: apparent KD of MS2 coat protein; designed switch direction (-1 OFF switch, 1 ON switch): 1; higher = weaker reporter binding
Details: input ligand: none
metric: apparent KD of MS2 coat protein (nM)

1. CGCGAACAGGCAGGAUAUAUAGAGCCAAAUAUUGUAGAAGGGCCACGUGCGGGAAGAGAACACAUGAGGAUCACCCAUGUUCGA [Eternabot solution 5] (Eterna round: R96, puzzle: Same State NG 1) : 30.7
2. GAGAGAGGGUGAGGAUAUAGAGUAAUAAUGAUACUAGAAGGCACAGACAUGAGGAUCACCCAUGUGGGAAUAAUCCAGAGAGAG [Parity 5 - Jieux - Same State NG 1] (Eterna round: R96, puzzle: Same State NG 1) : 401
3. GCCAACGCAUGAGGAUAUGGCACCUUAUUGGUGCCAGAAGGCAUGUCUAUUGACAUGAGGAUCACCCAUGUAUUAUAGUUGGCA [Fiskers NG1ss - 15] (Eterna round: R96, puzzle: Same State NG 1) : 882
4. ACAUGAGAGAAAGGAUAUCAUGUACCUACAUGUGACAUGAGGAUCACCCAUGUGGUAAGUAUGAGUGAGAAGGUUCAGAUAUGU [Equivalence 34 - Jieux - Same State NG 2] (Eterna round: R96, puzzle: Same State NG 2) : 448
5. ACUCUACAUGAGGAUCACCCAUGUUGAGCCCAUCAAGGAUAUGGGUCUUAAUCGCGGGUGCCAGAAGGUGAUGGUU [Xesove] (Eterna round: R96, puzzle: Same State 1) : 94.3
6. CCAGGACAUGAGGAUCACCCAUGUGCUUAAUGUGGAGAAUCUCAGGAUAUCAUGAGGAUUACCCAUGAGAAGGGAGAUCCGAGG (Eterna round: R96, puzzle: Same State NG 3) : 483
7. UUUGCAUGACGAGGAUAUCAUUUAUUUCAUGUUUGAGAAGGCGUUUUUUUUAUUACCUUACAUGAGGAUCACCCAUGUGUCUGU [JR_SSNG1_Sub044] (Eterna round: R96, puzzle: Same State NG 1) : 48.5
8. GUAGCAUACCGAGGAUAUUCAUAAAAUAAAUAAACAUGAGGAUCACCCAUGUGGCGAAAGCCUUGGGAGAAGGCGGAAUGCUAC [Xeonanis - 20 Mod73] (Eterna round: R96, puzzle: Same State NG 2) : 359
9. UUACUCAUGUAAGGAUAUGCAGCCGUUUCGGCUGCAGAAGGUACUAUAAUACAUGAGGAUCACCCAUGUCUUUUUAAUUUUUAC [JL SSNG1 1.28] (Eterna round: R96, puzzle: Same State NG 1) : 54.2
10. AAGAAACAUGAGGAUCACCCAUGUAGAAAUAUGGGAGGAUAUACGAGGACGAAAGUCAAAGUAGAAGGCCUAAGAA [Mat - Same State 1 - Meechl mod - D130] (Eterna round: R96, puzzle: Same State 1) : 63.8
11. AUUUUUAAUGCAGGAUAUGAUUAACAUGAGGAUCACCCAUGUGGUGUUGUGAGUAAGGAGAGUGAUCAGAAGGGCAUAUUUUUU [JMF's solution 80] (Eterna round: R96, puzzle: Same State NG 2) : 863
12. GGAUGAUAGACAGGAUAUUGAUUGUAAUUAGGUCAAGAAGGGUCAAUGAUUUAAACGACCAGUUACAUGAGGAUCACCCAUGUU [JR_SSNG1_Sub027] (Eterna round: R96, puzzle: Same State NG 1) : 315
13. UUAUUAAUUACAUGAGGAUCACCCAUGUUAAAUAGUCAGAGACAGGAUAUAGAAGUCUCGUUUUACUAGAAGGGUCAUUAUAUG [JR_SSNG3_Sub013] (Eterna round: R96, puzzle: Same State NG 3) : 35.8
14. GUAGCAUACCGAGGAUAUUCAUAUACAUGAGGAUCACCCAUGUUAAAUAAUAGGCGAAAGCCUUGGGAGAAGGCGGAAUGCUAC [Xeonanis - 20 Mod70] (Eterna round: R96, puzzle: Same State NG 2) : 12.6
15. GGCUGUUAAUUAGGAUAUGGUCACAUGAGGAUCACCCAUGUAACGAUGAUACGAUGUGGUCAAGACUAGAAGGGAUCGCUAACA [SameState NG2 #71] (Eterna round: R96, puzzle: Same State NG 2) : 105
16. CCGGCAAGUAUAGGAUAUCCCGCAACAGAAACGGGAGAAGGGUGCCAAACAUGAGGAUCACCCAUGUACACCGGAAAUAAAUAA [Lazaorra] (Eterna round: R96, puzzle: Same State NG 1) : 46.9
17. AGAUCAUGACGAGGAUAUGGUACAUGAGGAUCACCCAUGUAUGUAUCAUAACGCGAAUGACGAAACCAGAAGGCGUCGUGAUCA [Mat - Same State NG 2 - JL mod - D43] (Eterna round: R96, puzzle: Same State NG 2) : 15.8
18. AGAUGUUAAUCAGGAUAUGGGCCCGUGAGGAUCACCCACGGAAAGUAGGUCCAACAGGGCCCAGUCUAGAAGGGAUGGCUAACA [malcolm 80 ssNG2 F5+F7.2] (Eterna round: R96, puzzle: Same State NG 2) : 84

// provenance: the supplement of paper PMC9170038
